- Test system: encephelomyocarditis virus
- test_method_notes: Antiviral assay: cytopathic effect in L929 cells
- Type: cell-based, mouse
- test_settings: relative CM conc. .008X
attribute_measured: Percentage Cytopathic Effect (%)
Report the figure in % without appending any unit label.

{"columns": ["molecule", "unit_symbol", "Percentage Cytopathic Effect"],
 "data": [
  ["zcyto25: mouse IL-28, SEQ ID NO:10 (protein, listed as Mus musculus, SIGNAL (1)...(28)) MKPETAGGHMLLLLLPLLLAAVLTRTQADPVPRATRLPVEAKDCHIAQFKSLSPKELQAFKKAKGAIEKRLLEKDMRCSSHLISRAWDLKQLQVQERPKALQAEVALTLKVWENINDSALTTILGQPLHTLSHIHSQLQTCTQLQATAEPKPPSRRLSRWLHRLQEAQSKETPGCLEDSVTSNLFQLLLRDLKCVASGDQCV", "%", 87]
]}

Continue with the molecule presented below.
Percentage Cytopathic Effect lookup needed for IL-29: human IL-29, previously designated zcyto21, SEQ ID NO:4 (protein, listed as Homo sapiens, SIGNAL (1)...(19)) MAAAWTVVLVTLVLGLAVAGPVPTSKPTTTGKGCHIGRFKSLSPQELASFKKARDALEESLKLKNWSCSSPVFPGNWDLRLLQVRERPVALEAELALTLKVLEAAAGPALEDVLDQPLHTLHHILSQLQACIQPQPTAGPRPRGRLHHWLHRLQEAPKKESAGCLEASVTFNLFRLLTRDLKYVADGNLCLRTSTHPEST , thanks.
87
